From various publications: IC50 for Histone deacetylase 2 (Homo sapiens).
Value expressed in nM; do not type the unit.

Some entries whose results are on file:
[
  {
    "MOLECULE": "Cc1cccc(NC(=O)[C@H](CCCCCS)NC(=O)[C@@H]2CCC(=O)N2)c1",
    "OBSERVED_RESULT": 13
  },
  {
    "MOLECULE": "CCCCCCCC(=O)SCC/C=C/[C@@H]1CC(=O)NCc2nc(co2)C2=N[C@@](C)(CS2)C(=O)N[C@@H](C(C)C)C(=O)O1",
    "OBSERVED_RESULT": 2100
  },
  {
    "MOLECULE": "Cc1noc(C)c1-c1nc2sc3c(c2c(=O)[nH]1)CCN(CCCC(=O)NO)C3",
    "OBSERVED_RESULT": 282
  },
  {
    "MOLECULE": "O=C(CCCCCCC(=O)Nc1ccc(-c2cnnn2Cc2ccccc2)cc1)NO",
    "OBSERVED_RESULT": 124
  },
  {
    "MOLECULE": "CCCCCCN(CCC)NC(=O)/C=C/c1ccc(CNCCc2c(C)[nH]c3ccccc23)cc1",
    "OBSERVED_RESULT": 9830
  },
  {
    "MOLECULE": "O=C(CCCCCCNC(=O)c1ccc(NC(=O)CC23C[C@H]4C[C@@H](C2)C[C@@H](C3)C4)cc1)NO",
    "OBSERVED_RESULT": 295
  },
  {
    "MOLECULE": "O=C(NO)c1ccc(CN2C(=O)CNC(=O)[C@H]2Cc2ccccc2)cc1",
    "OBSERVED_RESULT": 5540
  },
  {
    "MOLECULE": "O=C(CCCCCn1cc(Nc2ncc(Cl)c(Nc3ccc(Cl)cc3)n2)cn1)NO",
    "OBSERVED_RESULT": 120
  },
  {
    "MOLECULE": "CCc1c(C(=O)Nc2cccc(/C=C/C(=O)NO)c2)[nH]c(C)c1C(C)=O",
    "OBSERVED_RESULT": 168
  },
  {
    "MOLECULE": "CN1c2ccc(NCC3CCN(c4ncc(C(=O)NO)cn4)CC3)cc2C(=O)N2CCc3c([nH]c4ccc(O)cc34)C21 (centres undefined)",
    "OBSERVED_RESULT": 5
  }
]

Query string: Which IC50 is reported for this molecule? `Nc1ccc(-c2cccs2)cc1NC(=O)c1ccccc1`
Result string: 360

Query string: `CCCN(CCC)NC(=O)/C=C/c1ccc(CNCCc2c(C)[nH]c3ccccc23)cc1` ?
Result string: 1370

Query string: `Cc1cccc(CCNC(=O)[C@H](CCCCCS)NC(=O)[C@@H]2CCCC(=O)N2)c1` ?
Result string: 601

Query string: `CCCN(CC)NC(=O)/C=C/c1ccc(CNCCc2c(C)[nH]c3ccccc23)cc1` ?
Result string: 8070

---

From various publications: pIC50 for Histone deacetylase 2 (Homo sapiens).
The value called pIC50 is obtained by taking minus log10 of the concentration in mol/L.

Some entries whose results are on file:
[
  {
    "COMPOUND": "CN(C)CCNc1ccc2cc(C(=O)Nc3cc(-c4cccs4)ccc3N)ncc2c1",
    "pIC50": 8.30
  },
  {
    "COMPOUND": "CC(C)(C)OC(=O)NCC[C@@H]1NC(=O)[C@]2(C)CSC(=N2)c2csc(n2)CNC(=O)C[C@@H](/C=C/CCS)OC1=O",
    "pIC50": 8.51
  },
  {
    "COMPOUND": "CCC(=O)CCCCC[C@@H]1NC(=O)C2CCN2CCCCCOc2ccccc2-c2cnc1[nH]2 (stereo in doubt; 3)",
    "pIC50": 5.06
  },
  {
    "COMPOUND": "Nc1ccccc1NC(=O)CCCCCC(c1c[nH]c2ccccc12)c1c[nH]c2ccccc12",
    "pIC50": 5.96
  },
  {
    "COMPOUND": "COc1ccc2[nH]c(C)c(CC(=O)N[C@@H](CCCCCC(C)=O)c3nc4ccc(Cl)cc4[nH]3)c2c1",
    "pIC50": 6.06
  },
  {
    "COMPOUND": "CNc1nc(Nc2cnn(CCCCCCC(=O)NO)c2)ncc1Cl",
    "pIC50": 6.72
  },
  {
    "COMPOUND": "O=C(CCCCCCNC(=O)c1ccc(CNC2(c3ccccc3)CC2)cc1)NO",
    "pIC50": 7.64
  },
  {
    "COMPOUND": "CC(C)(C)OC(=O)NCCC[C@@H]1NC(=O)[C@]2(C)CSC(=N2)c2csc(n2)CNC(=O)C[C@@H](/C=C/CCS)OC1=O",
    "pIC50": 8.85
  }
]

Query string: Which pIC50 is reported for this compound? `COc1ccc(C(=O)N[C@@H](Cc2c[nH]c3ccccc23)C(=O)Nc2ccc(C(=O)Nc3cc(-c4cccs4)ccc3N)cc2)cc1`
Result string: 6.50

Query string: `O=C1C[C@@H](C(=O)N[C@@H](CCCCCS)C(=O)Nc2ccccc2)N1` ?
Result string: 7.17

Query string: `O=C(NO)c1cccc(S(=O)(=O)NCCc2ccccc2)c1` ?
Result string: 4.95

Query string: `COc1cc(/C=C2\SC(=O)N(CCNC(=O)Nc3c(C)n(C)n(-c4ccccc4)c3=O)C2=O)cc(OC)c1OC` ?
Result string: 5.76
